B1: TPR t1 (parent)
chain: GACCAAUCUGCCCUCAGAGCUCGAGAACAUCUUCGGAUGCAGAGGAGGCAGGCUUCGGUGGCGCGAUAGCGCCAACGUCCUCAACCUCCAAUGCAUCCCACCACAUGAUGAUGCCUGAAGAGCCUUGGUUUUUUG

variants of: B1; test: polymerase ribozyme fitness, log enrichment relative to wild type (log ratio); higher = more active; in vitro selection for triplet polymerase activity
# label = satisfied if polymerase ribozyme fitness (log ratio) >= -2 else not satisfied

For orientation, consider the following solved cases.
GACUAAUCUGCCCUCAGAGCUCGAGAACAUCUUCGGAUGCAGACGAGGCAGGCUUCGGUGGCGUGAUAGCGCCAACGUCCUCAACCUCCAAUGCAUCCCACCACAUGAUGAUGCCUGAUGAGCCUUGGUUUUAUG [C4U G44C C64U A119U U133A]	not satisfied
GACCAAUCUGCCCUCAGAGCUCGAGAACAUCUUCGAAUGCAGAGGAGGCAGGCUUCGGUGUCGCGAUAGCGCCAACGUCCUCAACCUCCAAUGCAUCCCACCACAUGAUGAUGCCUGAAGAGCCUUGGUUUUUUG [G36A G61U]	satisfied
GACCAAUCUGCCCUCAGAGGUCGAGAACAUCUUCGGAUGCAGAGGAGGCAGGGUUCGGUGGCGCGAUAGCGUCAACGUCCUCAACCUCCAAUGCAUCCCACCACAUGAUGAUGCCUGAAGAGCCUUGGUUUUUUG [C20G C53G C72U]	not satisfied
GACCAAUCGGCCCUCAGAGCUCGAGAACAUCUUCGGAUGCAGAGGAGGCAGGUUUCGGUGGCGCGAUAGCGCCAACGUCCUCAACCUCCAAUGCAUCCCACCACAUCAUGAUGCCUGAAGAGCCUUGGUUUUUUG [U9G C53U G107C]	not satisfied
GACCAAUCUGCCCUCAGAUCUCGAGAACAUCUUCGGAUGCAGAGGAGGCAGGCUUCGGUGGCGCGAUAGCGCCAAAGUCCUCAAUCUCCAAUGCAUCCCACCACAUGAUGAUGCCUGAAGAGCGUUGGUUUUUUG [G19U C76A C85U C124G]	not satisfied
GACCAGUCUGCCCUCAGAGCUCGAGAACAUCUUCGGAUGCAGAGGAGGCAGGCUUCGGUGGCUCGAUAGCGCGAACGUCCUCAACCUCCAAUGCAUCCCACAACAUGAUUAUGCGUGAAGAGCCUUGGUUUUUUG [A6G G63U C73G C102A G110U C115G]	not satisfied

Ask | Given the entry GACCAAUCUGCCCUCAGAGCUCGAGAACAUCUUCGGAUGAAGAGGAGGUAGGCUUCGGUGGCGCGAUAGCGCCAACGUCCUCAACCUCCAAUGCAUCCCACCACAUGAUGAUGCCUGAAGAGCCUUGGUUUUUUG [C40A C49U] , answer whether its polymerase ribozyme fitness (log ratio) meets or surpasses -2.
Reply | not satisfied

Ask | # iterate: GACCAAUCUGCCCUCAGAGCUCGAGAACAUCUUCGAAUGCAGAGGAGGAAGGCUUCGGUAGCGCGAUAGCGCCAACGUCCUCAACCUCCAAUGCAUCCCACCACAUGAUGAUGCCUGGAGAGCCUUGGUUUUUUG [G36A C49A G60A A118G]
Reply | satisfied

Ask | # iterate: GACCAAUCUGCCCUCAGAGCUCGAGAACAUCUUCGGAUGCAGAGGAGGAAGGCUUCGGUGGCUCGAUAGCGCCAACGUCCUCAACCUCCAAUGUAUCCCACCACAUGAUGAUGCCUGGAGAGCCUUGGUUUUUUG [C49A G63U C94U A118G]
Reply | satisfied
